Examples of molecules with documented inhibition follow.
Experiment: inhibitors of MITF-dependent TRPM1 promoter reporter, primary screen, cell-based, SK-MEL-5, single point, luciferase (AID 488899)
Details: SK-MEL-5 TRPM1 promoter luciferase, 24 h; at 12.5 µM; active compounds read high
About 2,800 (0.85%) of roughly 330,000 compounds were called active. The sample as a whole holds a higher share of actives than the screen did.

| Molecule | inhibition |
| --- | --- |
| COC1C(O)C(C)OC(OC2CCC3(C=O)C(CCC4C3CCC3(C)C(C5=CC(=O)OC5)CCC43O)C2)C1O (stereo unspecified) | 74.9% (active) |
| COC(=O)C1=C(c2ccc(-c3ccccc3)c(F)c2)C[C@@H]2CC[C@H]1N2C(=O)NCc1ccc(F)cc1 | -8.41% (inactive) |
| CC1CC=CCC12C(=O)NC(=S)NC2=O (stereo unspecified) | 6.98% (inactive) |
| O=c1c2ccccc2nc(/C=C/c2ccc(F)cc2)n1-c1ccccc1O | -2.83% (inactive) |

Quick check: inhibition of CC(=O)N(C1=NCCCS1)c1ccccc1F ?
6.66% (inactive)

Quick one: inhibition for O=C(c1ccccc1)C(O)(CN1CCCCC1)c1ccccc1 (stereo unspecified) ?
3.2% (inactive)
